# System: CEM cells HIV-1 protection, formazan growth assay
# method summary: NCI AIDS Antiviral Assay;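 active means compounds giving half or more protection of infected cells from virus-caused growth loss, again on retest; inactive means the rest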
Log the outcome using a class from t (active), f (inactive)

Known results for compounds:
# compound, qualitative label
data = [
    ("Nc1nc(N)c2ncn(C3OC(CO)CC3F)c2n1 (stereo not given)", "t"),
    ("CC1CCC2N(C1)CC1C3(O)CC45OC6(O)C(O)CCC4(C)C6CCC5C3(O)CC(O)C1(O)C2(C)O (stereo not given)", "f"),
    ("Cc1ccc(/C=N\\NC(=O)c2ccncc2)s1", "f"),
    ("CC1(C)C2CC(O)C1CCC2=O (stereo not given)", "f"),
    ("O=C(Nc1ccccc1)N1CCNC1=S", "t"),
    ("CC(C)(C)N=P(c1ccccc1)(c1ccccc1)c1ccccc1", "f"),
]

Req: For this compound, state the assay outcome: "O=C1/C(=C/c2ccc(F)cc2)Cc2ccccc21"
Resp: f

Req: Name the outcome recorded for "O=c1n(Cc2ccccc2)c(=O)n2c(=O)n(Cc3ccccc3)c(=O)n12" in the assay.
Resp: f

Req: Hey, what did the test say about "CC(C)CNC(=O)Cn1c2c(c3ccccc31)CCCC2" ?
Resp: f

Req: Tell me the assay call for COC(=O)c1c2c(cc3c1CC1(Cc4ccccc4C1=O)C3)CCC2 (stereo not given) please.
Resp: f

Req: # fetch the recorded call for "COC(=O)C1=C(C(=O)OC)SC(=C2SC3=C(SC(=C4SCCS4)S3)S2)S1" here
Resp: f

Req: Record lookup: outcome of this test for "Cc1c([N+](=O)[O-])ccc2c(NCCCN(C)C)ccnc12" ?
Resp: f

Req: Hello, I am checking results. What call was entered for "ClC1=NSC(Cl)=NS1" ?
Resp: f

Req: How did this test come out for "CC(=O)N1N=C(N)CC1=O" ?
Resp: f

Req: Tell me the recorded outcome of this test for OC1COc2c3ccccc3nn2C1 (stereo not given) .
Resp: f

Req: Lab log entry: "O=C1c2cc([N+](=O)[O-])ccc2-c2c(S)cccc21" — outcome as called in the assay?
Resp: f

Req: Call for entry "CN1CCN(C(=O)CCN2c3ccccc3Sc3ccccc32)CC1" :
Resp: f

Req: // return assay outcome for "Cc1cc(Nc2ccc(N=Nc3ccc(O)c4ncccc34)cc2)nc(C)n1"
Resp: f

Req: Hey, what did the test say about C=CC(CCCCCCCC(=O)O)S(=O)(=O)O (stereo not given) ?
Resp: f

Req: Record lookup: outcome of this test for "Nc1ccc2ncc(NCc3ccc(F)cc3)nc2c1" ?
Resp: f

###

# Tested on: CEM cells HIV-1 protection, formazan growth assay
# method summary: NCI AIDS Antiviral Assay
# protocol conditions: measured here: growth of uninfected CEM cells
Provide the recorded pIC50 for the entries that follow.
Give bare numbers, as −log10 of the molar value.

Worked cases, answers included:
# structure string, system name, pIC50
data = [
    ("O=c1[nH]cnc2c1sc1nc3ccccc3n12", "CEM cells HIV-1 protection, formazan growth assay", 3.85),
    ("NC(=O)c1ccc[c]([Sb](=[O])([OH])[OH])c1", "CEM cells HIV-1 protection, formazan growth assay", 3.40),
]

Req: Form field - read-out: pIC50; system: CEM cells HIV-1 protection, formazan growth assay; submitted item: "Clc1ccc(-n2nnc(C3=NCCCN3)c2-c2ccccc2)cc1"
Resp: 3.83
